Tested on: PBMCs
ASSAY_TEXT: LPS-induced IL-8 release in PBMC cells (assay b)
Type: cell-based, human
RUN_CONDITIONS: Homo sapiens, PBMC; LPS-stimulated PBMCs; read-out: IC50 Values for Inhibition of Cytokine Release, PBMCs IL-8
VALUE_KIND: IC50 (nM)
Numbers only here, please. The scale is nM.

[[record]]
compound = "CNC(=O)c1cc(Nc2cc(Oc3ccc(NC(=O)Nc4cc(C(C)(C)C)cc(P(C)(C)=O)c4OC)c4ccccc34)ccn2)cc(OCCN2CCOCC2)c1"
value_kind = "IC50"
unit_name = "nM"
meas_value = 3.9


The compound COc1cc(Nc2cc(Oc3ccc(NC(=O)Nc4cc(C(C)(C)C)cc(CC(N)=O)c4OC)c4ccccc34)ccn2)cc(C(=O)NCC(CO)(CO)CO)c1 showed IC50 equal to 7.2

# IC50 of COc1cc(Nc2cc(Oc3ccc(NC(=O)Nc4cc(C(C)(C)C)cc(C[S+](C)[O-])c4OC)c4ccccc34)ccn2)cc(C(=O)NCCN2CCOCC2)c1 (stereo not drawn) = 1
